IC50 by entry:
Biological target: IL-17A/A (Homo sapiens, UniProt Q16552)
Construct: purchased Genscript Z03228
Sequence (Q16552 24-155): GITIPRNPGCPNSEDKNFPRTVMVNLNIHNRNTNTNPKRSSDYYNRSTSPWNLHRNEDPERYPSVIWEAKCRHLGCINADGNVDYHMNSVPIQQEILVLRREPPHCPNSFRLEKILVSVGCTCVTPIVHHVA
Test: IL-17A/A HEK-Blue Cell Assay
Format: cell-based
Settings: HEK-Blue IL-17A reporter cell line, SEAP readout at A630, 20 hours incubation with IL-17A/A; top concentration 10 uM, 1 uM or 0.3 uM; read-out: IL-17A/A inhibition (pIC50) (converted)

Solved entries (count: 4):
CCC(=O)N[C@@H](C(=O)N1CCN(C)CC1)[C@@H](C)c1ccc(NC(=O)C(NC(=O)c2ccnn2CC)C(C)C2CCC(F)(F)CC2)c(F)c1 (single isomer, unassigned) [Compound 606]: 10 to 100 nM
CCC(=O)N[C@@H](C(=O)N1C[C@H](C)N(C(=O)CC)[C@@H](C)C1)[C@@H](C)c1ccc(NC(=O)[C@@H](NC(=O)c2nonc2CC)[C@H]2CC[C@H](C)CC2)c(F)c1 [Compound 448]: < 10 nM
CCC(=O)N[C@@H](C(=O)N[C@@H](C)C1CC1)[C@@H](C)c1ccc(NC(=O)[C@@H](NC(=O)c2ccnn2CC)[C@H]2CC[C@H](C)CC2)c(F)c1 [Compound 344]: 10 to 100 nM
CCn1nccc1C(=O)N[C@H](C(=O)Nc1ccc([C@H](C)[C@@H](NC(=O)c2cnns2)C(=O)N2CCN(C)CC2)cc1F)C1CCCCCC1 [Compound 337]: < 10 nM

Now, please, on to the next compound.
Query: Record request: IC50 value, item CCC(=O)N[C@H](Cc1ccc(NC(=O)[C@@H](NC(=O)c2ccnn2C(C)C)C2CCCCCC2)c(F)c1)C(=O)N1CCN(C)CC1 [Compound 238]
Result: 10 to 100 nM
